Hello, the source for this data is patent US20040097433A1, in case you need it.

Kindly state pEC50 for each of the entries shown.
tested on: ELAM (E-selectin); experiment: Cell-ELAM (E-selectin) assay; type: cell-based; details: Endothelial cell, 6 h, endothelial cells stimulated with LPS and IL-1β for 6 hours; E-selectin antibody ELISA; read-out: EC50 for reducing the expression of ELAM
pEC50: −log10 of the molar value.

Would you kindly share the measured pEC50 for CC1(CCC(=O)O)CCc2ccc(O)c(O)c2O1 (stereo not drawn) ?
4.00 to 5.00

Would you kindly share the measured pEC50 for Cc1c(C)c2c(c(C)c1O)CCC(C)(C(=O)NCC1C3CC4CC(C3)CC1C4)O2 (stereo not drawn) ?
4.00 to 5.00

Would you kindly share the measured pEC50 for COC(=O)CCC1(C)CCc2c(Br)c(O)c(C)c(C)c2O1 (stereo not drawn) ?
4.00 to 5.00
